Every entry's value here was drawn from paper PMC4336329.

Each record here notes measured hERG current change (%, negative = inhibition) at 1uM.
biological target: human ether-à-go-go-related gene (hERG) potassium channel (human, UniProt Q12809); assay: primary screen, population patch clamp on CHO cells stably expressing hERG; higher = less effect of the substance
Sequence (Q12809 whole entry, looked up): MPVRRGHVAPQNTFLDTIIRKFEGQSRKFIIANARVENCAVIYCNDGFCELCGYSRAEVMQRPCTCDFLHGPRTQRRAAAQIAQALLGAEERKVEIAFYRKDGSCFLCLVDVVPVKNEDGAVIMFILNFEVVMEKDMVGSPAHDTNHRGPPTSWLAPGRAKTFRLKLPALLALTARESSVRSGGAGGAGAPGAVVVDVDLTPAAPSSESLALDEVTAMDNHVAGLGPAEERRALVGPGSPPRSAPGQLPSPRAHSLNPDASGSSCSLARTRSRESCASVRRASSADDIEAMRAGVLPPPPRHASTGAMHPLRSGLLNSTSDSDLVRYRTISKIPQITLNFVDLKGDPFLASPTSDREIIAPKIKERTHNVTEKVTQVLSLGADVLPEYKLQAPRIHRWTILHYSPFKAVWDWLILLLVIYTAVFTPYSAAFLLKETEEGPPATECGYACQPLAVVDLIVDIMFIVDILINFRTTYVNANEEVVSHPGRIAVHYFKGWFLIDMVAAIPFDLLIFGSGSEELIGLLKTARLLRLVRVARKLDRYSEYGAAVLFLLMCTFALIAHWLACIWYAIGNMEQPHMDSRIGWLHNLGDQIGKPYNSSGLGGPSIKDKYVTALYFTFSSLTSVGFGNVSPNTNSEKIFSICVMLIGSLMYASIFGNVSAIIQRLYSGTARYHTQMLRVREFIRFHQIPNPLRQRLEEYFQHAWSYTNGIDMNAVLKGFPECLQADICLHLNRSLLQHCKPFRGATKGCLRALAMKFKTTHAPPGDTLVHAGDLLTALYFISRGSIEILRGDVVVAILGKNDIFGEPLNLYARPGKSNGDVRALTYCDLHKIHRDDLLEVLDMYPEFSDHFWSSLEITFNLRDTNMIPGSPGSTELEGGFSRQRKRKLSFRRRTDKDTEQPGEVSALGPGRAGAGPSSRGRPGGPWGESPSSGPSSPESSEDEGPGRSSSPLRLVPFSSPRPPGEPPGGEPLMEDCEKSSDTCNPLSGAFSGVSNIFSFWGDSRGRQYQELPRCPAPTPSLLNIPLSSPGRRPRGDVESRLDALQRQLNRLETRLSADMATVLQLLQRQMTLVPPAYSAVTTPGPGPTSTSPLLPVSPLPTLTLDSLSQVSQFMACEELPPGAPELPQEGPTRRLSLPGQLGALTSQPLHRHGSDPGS
Out of some 310,000 compounds screened, about 2,200 (0.71%) showed an effect of 50% or more. The effect is printed as a negative number. Only a selection was taken, and strong results are over-represented in it overall.

In [3]: df
Out[3]:
                                   compound  reported_measurement
0  O=C(NCc1ccccc1Cl)C1CCN(S(=O)(=O)c2ccc(-n3cnnn3)cc2)CC1                -3.01%
1  CC(C)CNC(=O)C1CCN(c2ccc(S(=O)(=O)N3CCOCC3)cc2[N+](=O)[O-])CC1                -9.02%

Noted for "CN(Cc1ccccc1)C(=O)C1CCN(S(=O)(=O)c2ccc(-n3cnnn3)cc2)CC1" : its hERG current change (%, negative = inhibition) at 1uM reads -62%

Record COc1ccc(CCC(C)NCc2cccc(Br)c2)cc1 (stereo not shown) . Reported hERG current change (%, negative = inhibition) at 1uM: -32.1%

# compound CC(CCc1ccc(O)cc1)NCc1ccc(Br)cc1 (stereo not shown) ; its hERG current change (%, negative = inhibition) at 1uM = -66.8%

// hERG current change (%, negative = inhibition) at 1uM lookup, compound = "CCCCNC(=O)COC(=O)c1cc(C)oc1C" , result: 8.11%

get_value(item= "Cc1c(CCOC(=O)CC23CC4CC(CC(C4)C2)C3)sc[n+]1CC(=O)c1ccc(Br)cc1.[Br-]" , readout=hERG current change (%, negative = inhibition) at 1uM) returns -63.5%

The measured hERG current change (%, negative = inhibition) at 1uM associated with "C=CCN(CC=C)C(=O)C1CCN(S(=O)(=O)c2ccc(-n3cnnn3)cc2)CC1" reads -13.1%

Notebook: "CCOC(=O)C1CCN(C(=O)Cn2cc(C(=O)C3CC3)c3ccccc32)CC1" , hERG current change (%, negative = inhibition) at 1uM read as 13.4%

According to the records, this compound CC(CCc1ccc(O)cc1)NCCc1ccc(O)c(O)c1.Cl (stereo not shown) displays hERG current change (%, negative = inhibition) at 1uM of 2.55%
